- TESTED_SYSTEM: T1, 4H3364-bH
- T1 chain: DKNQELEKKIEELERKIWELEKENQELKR
- RUN_DESCRIPTION: two-hybrid library CCNG1;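 also: natural log of median RNA to DNA barcode read ratio; higher means stronger binding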
Answer each item with its documented interaction score.
# output: bare number, no unit

Q: For the binder DKNQELEKENEELKRKIWELEKEIQELER [4H3297-bH] , what interaction score is on record?
Ans: -0.362

Q: Now consider DKIQELKKKIEELERKIWELKKENQELER [4H2859-bH] and answer again.
Ans: 1.02

Q: Now consider DKIQELEKKNEELEREIWELKKENQELKR [4H2444-bH] and answer again.
Ans: 0.375

Q: Now consider DKIQELEKEIEELKRENWELKKKNQELER [4H2143-bH] and answer again.
Ans: 0.347

Q: Now consider DKIQELKKKIEELKRKNWELEKENQELER [4H2931-bH] and answer again.
Ans: -0.507

Source of measurements: paper PMC10397247
